Every entry's value here was drawn from PubChem BioAssay (NCI).

System: SF-268 CNS
Assay: NCI tumour cell line growth inhibition, 48 h; in the data active = GI50 below about 0.43 µM; inactive = the rest
Entry note: the call must match one of active, inactive

QUERY: How did this test come out for Cc1nn(-c2ccccc2)c2c1C1C(=C(c3ccc(Cl)cc3)N2)C(=O)Nc2ccccc21 (stereo unspecified) ?
RESULT: inactive

QUERY: How did this test come out for O=C1OC(c2ccc(O)cc2)(c2ccc(O)cc2)c2cccc3cccc1c23 ?
RESULT: inactive

QUERY: How did this test come out for COc1cc(C2C3=C(COC3=O)N(CCO)c3cc4c(cc32)CCC4)cc(OC)c1O (stereo unspecified) ?
RESULT: active

QUERY: How did this test come out for N#CC1c2ccccc2-c2ccccc2N1C(=O)c1ccccc1 (stereo unspecified) ?
RESULT: inactive

QUERY: How did this test come out for CC(C)OP(=O)(CP(=O)(OC(C)C)OC(C)C)OC(C)C.[CH3][Sn]([Br])([Br])[Br] ?
RESULT: inactive

QUERY: How did this test come out for C/C(=C(/c1ccc(O)cc1)c1ccc(OCCN2CCCC2)cc1)c1ccccc1 ?
RESULT: inactive

QUERY: How did this test come out for Cc1ccc([P+](Cc2ccc([N+](=O)[O-])cc2)(c2ccc(C)cc2)c2ccc(C)cc2)cc1 ?
RESULT: inactive

QUERY: How did this test come out for CN1CCCC1c1cccnc1.O=C(O)c1ccccc1O.O=C([O-])c1ccccc1[OH2+].O=C([O-])c1ccccc1[OH2+].O=C([O-])c1ccccc1[OH2+].[Mn+2] (stereo unspecified) ?
RESULT: inactive

QUERY: How did this test come out for O=C1c2cccnc2C(=O)c2c1c(C(=O)OCCCN1CCOCC1)c1ccccn21 ?
RESULT: active

QUERY: How did this test come out for CCN(CC)CCC(=O)Nc1ccc(Cn2nnc3c2C(=O)c2nnn(Cc4ccc(NC(=O)CCN(CC)CC)cc4)c2C3=O)cc1 ?
RESULT: active

QUERY: How did this test come out for CCN(CC)CCOc1ccc(/C=C2\C[C@H]3[C@@H]4CC=C5C[C@@H](OC(C)=O)CC[C@]5(C)[C@H]4CC[C@]3(C)[C@H]2OC(C)=O)cc1OC ?
RESULT: inactive

QUERY: How did this test come out for C[C@@H](NC(=O)Cc1cc(F)cc(F)c1)C(=O)N[C@@]1(C)N=C(c2ccccc2)c2ccccc2N(C)C1=O ?
RESULT: inactive

QUERY: How did this test come out for COC(=O)c1cc(Nc2ccc(O)c3c2C(=O)c2c([N+](=O)[O-])ccc(O)c2C3=O)cc(C(=O)OC)c1 ?
RESULT: inactive

QUERY: How did this test come out for COc1cccc(-c2nn(-c3ccccc3)cc2-c2ccnc(NCCNC(=O)Nc3ccc(Cl)c(Cl)c3)c2)c1 ?
RESULT: inactive

QUERY: How did this test come out for O=c1oc(-c2ccc(O)c(O)c2)cc2cc(O)cc(O)c12 ?
RESULT: inactive

QUERY: How did this test come out for CC[C@]12C=CCN3CC[C@]4(C(=C(C(=O)OC)C1)Nc1cc(O)ccc14)[C@@H]32 ?
RESULT: inactive
